# TARGET_ENTITY: PD-1/PD-L1 interaction (Homo sapiens, UniProt Q9NZQ7)
# Construct: Tag1 or Tag2 (undisclosed kit tag); purchased Cisbio
# Sequence (Q9NZQ7 19-238 limits assumed): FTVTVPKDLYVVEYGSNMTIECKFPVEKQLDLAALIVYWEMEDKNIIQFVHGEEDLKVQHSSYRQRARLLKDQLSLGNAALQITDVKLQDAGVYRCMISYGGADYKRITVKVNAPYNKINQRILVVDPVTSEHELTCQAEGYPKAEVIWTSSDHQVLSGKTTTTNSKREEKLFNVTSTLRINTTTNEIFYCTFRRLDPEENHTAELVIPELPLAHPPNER
# ASSAY_COMMENT: Cisbio PD-1/PD-L1 Homogeneous Time-Resolved Fluorescence (HTRF) binding assay
# STUDY_CONDITIONS: Table 10; same result in μM; P1 and P2 are different isomers; read-out: Reported IC50
MEASURE: IC50 (µM)

O=C(c1ccccc1)N1CCN(Cc2nsc(NC[C@@H]3CCCN3Cc3ccc(Br)cc3)n2)CC1 [Compound B412] : 4.4
COc1cc(C(=O)N2CCN(Cc3nccc(NC[C@@H]4CCCN4Cc4ccc(Br)cc4)n3)CC2)cc(OC)c1OC [Compound B709] : 8

1. COc1cc(C(=O)N2C[C@H](C)N(Cc3nsc(NC[C@@H]4C[C@@H](O)CN4Cc4ccc(Br)cc4)n3)C[C@@H]2C)cc(OC)c1OC [Compound B911]
2. COc1cc(C(=O)N2CCN(Cc3nsc(NC[C@@H]4CCCN4Cc4ccc(Cl)cc4)n3)CC2)cc(OC)c1OC [Compound B314]
I'm curious, which of these has a smaller IC50 number: 1 or 2 ? When you have decided, please share the label of that item.
2
(2: 0.018 µM, 1: 0.033 µM)
